Assign pEC50 to each entry below.
# experimental_system: human estrogen receptor β receptor (hERβ) (Homo sapiens, UniProt Q92731)
# Sequence (Q92731 whole entry): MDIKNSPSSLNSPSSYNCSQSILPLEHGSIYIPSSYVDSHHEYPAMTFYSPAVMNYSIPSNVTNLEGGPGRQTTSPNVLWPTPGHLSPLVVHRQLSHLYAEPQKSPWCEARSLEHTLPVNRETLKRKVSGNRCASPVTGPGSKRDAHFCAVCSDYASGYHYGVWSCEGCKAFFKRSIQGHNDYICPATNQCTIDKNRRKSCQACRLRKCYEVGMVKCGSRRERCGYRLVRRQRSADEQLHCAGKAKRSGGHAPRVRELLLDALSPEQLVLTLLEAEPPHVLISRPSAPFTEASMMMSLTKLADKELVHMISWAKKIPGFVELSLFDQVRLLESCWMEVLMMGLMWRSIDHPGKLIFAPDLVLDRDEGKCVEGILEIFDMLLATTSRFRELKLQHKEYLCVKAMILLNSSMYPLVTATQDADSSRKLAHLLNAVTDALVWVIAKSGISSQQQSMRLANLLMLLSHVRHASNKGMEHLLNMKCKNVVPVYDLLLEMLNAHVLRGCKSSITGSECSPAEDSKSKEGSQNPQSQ
# test_protocol: ERβ transactivation bioassay in recombinant CHO cells (rat oxytocin promoter, luciferase reporter)
# Type: cell-based
# reported_conditions: transactivation of luciferase via hERβ in CHO cells; read-out: ERβ agonistic EC50
// scale note: pEC50 = -log10(conc_M); give the bare number

## Input Name the recorded pEC50 of the item CCC1C(c2ccc(O)cc2)Cc2ccc(O)cc2C1Cc1ccc(O)cc1 (racemic) in your answer.
## Output 7.51

## Input Name the recorded pEC50 of the item COc1ccccc1CC1c2cc(O)ccc2CC(c2ccc(O)cc2)C1C (stereo not shown) in your answer.
## Output 8.60

## Input Name the recorded pEC50 of the item CC1C(c2ccc(O)cc2F)Cc2ccc(O)cc2C1Cc1ccccc1F (racemic) in your answer.
## Output 9.52

## Input Name the recorded pEC50 of the item CCC1C(c2ccc(O)cc2)Cc2ccc(O)cc2C1Cc1ccccc1C#N (racemic) in your answer.
## Output 9.31

###

# experimental_system: human estrogen receptor β receptor (hERβ) (Homo sapiens)
# test_protocol: ERβ transactivation bioassay in recombinant CHO cells (rat oxytocin promoter, luciferase reporter)
# reported_conditions: transactivation of luciferase via hERβ in CHO cells; read-out: ERβ agonistic EC50
measurement_type: pEC50
// scale note: pEC50 = -log10(conc_M); give the bare number

## Input GET pEC50 | system: human estrogen receptor β receptor (hERβ) (Homo sapiens) | item: CC[C@H]1[C@@H](c2ccc(O)cc2)Cc2ccc(O)cc2[C@H]1Cc1ccccc1F (single isomer, unassigned) [Compound 11b]
## Output 9.82

## Input GET pEC50 | system: human estrogen receptor β receptor (hERβ) (Homo sapiens) | item: CC1C(c2ccc(O)cc2)Cc2ccc(O)c(F)c2C1Cc1c(F)cccc1F (racemic) [Compound 9y]
## Output 7.92

## Input GET pEC50 | system: human estrogen receptor β receptor (hERβ) (Homo sapiens) | item: CCC1C(c2ccc(O)cc2)Cc2ccc(O)cc2C1Cc1ccccc1C (racemic) [Compound 9v]
## Output 8.80
